- measured_on: Tyrosine-protein kinase HCK (Homo sapiens)
- measurement_notes: inhibitors of Nef-activated human Hck kinase, primary screen, biochemical, Z-Lyte FRET, 384-well, Hck-YEEI (AID 463187)
- test_context: Recombinant Hck-YEEI plus Nef, Z-Lyte FRET kinase assay; at 20 µM
The campaign covered roughly 220,000 compounds. About 1,500 (0.68%) were called active.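 The calls were made as follows: active = Hck-Nef kinase inhibition above about 50% (limit read from the data); inactive = inhibition below that limit.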 Shown is part of a subset that was picked to be rich in actives.
Outcome codes: active, inactive

molecule	measured_on	category
Cc1cccc(C)c1NC(=O)C1(C)c2cccc[n+]2CC(=O)N1Cc1cccs1 (stereo not given)	Tyrosine-protein kinase HCK (Homo sapiens)	inactive
CNc1ccc(SC#N)cc1	Tyrosine-protein kinase HCK (Homo sapiens)	inactive
COc1cc(OC)cc(C(=O)NCC(=O)OCc2csc(-c3ccccc3)n2)c1	Tyrosine-protein kinase HCK (Homo sapiens)	inactive
CN(CC(=O)Nc1cccc(F)c1)CC(=O)Nc1cccc([N+](=O)[O-])c1	Tyrosine-protein kinase HCK (Homo sapiens)	active
O=[N+]([O-])c1ccc(F)cc1Oc1nc(-c2cccnc2)nc2ccccc12	Tyrosine-protein kinase HCK (Homo sapiens)	inactive
O=C(Nc1ccc(Cl)cc1)Nc1ccc(Oc2cccnc2)nc1	Tyrosine-protein kinase HCK (Homo sapiens)	inactive
O=C(O)Cc1sc(-c2ccccc2)nc1-c1cccs1	Tyrosine-protein kinase HCK (Homo sapiens)	inactive
CC(C)C[C@H](CO)Nc1nc(N(C)c2cccc(Cl)c2)c2ncn(C(C)C)c2n1	Tyrosine-protein kinase HCK (Homo sapiens)	inactive
Cc1ccc(CCC(=O)Nc2ncc(Cc3cc(Cl)ccc3Cl)s2)o1	Tyrosine-protein kinase HCK (Homo sapiens)	inactive
Cc1c(Cc2ccccc2)c(=O)oc2cc(OCC(N)=O)ccc12	Tyrosine-protein kinase HCK (Homo sapiens)	inactive
CCOc1cccc(/C=N/N2C(=O)CSC2=S)c1O	Tyrosine-protein kinase HCK (Homo sapiens)	inactive
C/C=C/C(=O)Nc1nnc(C(C)C)s1	Tyrosine-protein kinase HCK (Homo sapiens)	inactive
CCc1ccccc1N1CN(Cc2ccco2)CNC1=S	Tyrosine-protein kinase HCK (Homo sapiens)	inactive
O=C(OCC1O[C@@H](OC(=O)c2cc(O)c(O)c(O)c2)[C@@H](OC(=O)c2cc(O)c(O)c(O)c2)[C@@H](OC(=O)c2cc(O)c(O)c(O)c2)[C@@H]1OC(=O)c1cc(O)c(O)c(O)c1)c1cc(O)c(O)c(O)c1 (stereo not given in full)	Tyrosine-protein kinase HCK (Homo sapiens)	active
N=c1ccn(CC(=O)NC(N)=O)c2ccccc12	Tyrosine-protein kinase HCK (Homo sapiens)	inactive
CCN(CC)c1ccc2cc(C(N)=O)/c(=N\NC(=O)c3ccncc3)oc2c1	Tyrosine-protein kinase HCK (Homo sapiens)	inactive
COCC(C)NC(=O)COc1nncc2ccccc12 (stereo not given)	Tyrosine-protein kinase HCK (Homo sapiens)	inactive
O=C(O)/C=C/c1cn(Cc2ccccc2)nc1-c1cccs1	Tyrosine-protein kinase HCK (Homo sapiens)	inactive
Cc1cc(C)cc(C(=O)NC(=S)Nc2ccc3[nH]c(=O)[nH]c3c2)c1	Tyrosine-protein kinase HCK (Homo sapiens)	inactive
Cc1ccc(S(=O)(=O)c2c(N)n(C)c3nc4ccccc4nc23)cc1	Tyrosine-protein kinase HCK (Homo sapiens)	active
O=C(COc1ccccc1F)NNC(=O)c1ccc(N2CCCCC2)c([N+](=O)[O-])c1	Tyrosine-protein kinase HCK (Homo sapiens)	inactive
Cc1ccc2nc(-c3cccc(Br)c3)cc(C(=O)Nn3cnnc3)c2c1	Tyrosine-protein kinase HCK (Homo sapiens)	inactive
CC(C)n1cnc2c(Nc3cccc(Cl)c3)nc(N(CCO)CCCO)nc21	Tyrosine-protein kinase HCK (Homo sapiens)	active
CCn1c(=O)c2cc(C(=O)Nc3cccc(C(C)=O)c3)sc2c2ccccc21	Tyrosine-protein kinase HCK (Homo sapiens)	active
O=C(c1cnn(-c2ccc(Cl)cc2)c1)c1ccccc1O	Tyrosine-protein kinase HCK (Homo sapiens)	inactive
